# assay: Highest frequency of moderate liver toxicity observed during clinical trials, expressed as a percentage. [column '% BIOL' in source]
# run parameters: human
*1 amine or outer side, *2 acyl side, *3 side chain or, on linkers, in order; H or OH if unused. Where a SMILES comes first, the peptide text is derived from it. Bridges are numbered along the chain shown (N, C = ends). [ ]: non-standard residue; d: D form. The star is where a group is joined. ξ: configuration not given here. X2 = N=C1NCCC([C@H](N[*:1])C(=O)[*:2])N1; ΔAla(Z-3-ureido) = NC(=O)N/C=C(\N)C(=O)O; ξβ3hOrn = NCCCC(N)CC(=O)*; Dap = NC[C@H](N)C(=O)O
Below is a list of entries, each paired with its recorded Hepatotoxicity (moderate) value.
Give a bare numeral; the unit % is implied.

A selection of reference data follows.
COC(=O)[C@H]1[C@H]2C[C@@H]3c4[nH]c5cc(OC)ccc5c4CCN3C[C@H]2C[C@@H](OC(=O)c2cc(OC)c(OC)c(OC)c2)[C@@H]1OC: 0
COCCCOc1ccnc(C[S+]([O-])c2nc3ccccc3[nH]2)c1C (stereo not given): 0
CC(C)(O)c1ccccc1CC[C@@H](SCC1(CC(=O)O)CC1)c1cccc(/C=C/c2ccc3ccc(Cl)cc3n2)c1: 13.9
C[C@@H]1[C@H](O)[C@@H](C)/C=C/C=C/C=C/C=C/C=C/C=C/C=C/[C@H](O[C@@H]2O[C@H](C)[C@@H](O)[C@H](N)[C@@H]2O)C[C@@H]2O[C@](O)(C[C@@H](O)C[C@@H](O)[C@H](O)CC[C@@H](O)C[C@@H](O)CC(=O)O[C@H]1C)C[C@H](O)[C@H]2C(=O)O: 91.7
C[C@@H]1NC(=O)[C@@H](N)CNC(=O)[C@H](C2CCNC(=N)N2)NC(=O)/C(=C/NC(N)=O)NC(=O)[C@H](CNC(=O)CC(N)CCCN)NC1=O.N=C1NCCC([C@@H]2NC(=O)/C(=C/NC(N)=O)NC(=O)[C@H](CNC(=O)CC(N)CCCN)NC(=O)[C@H](CO)NC(=O)[C@@H](N)CNC2=O)N1 (stereo partly drawn) [CAPREOMYCIN] (H-[Dap]S[Dap](ξβ3hOrn)[ΔAla(Z-3-ureido)][X2]; lactam 1-C): 0

// Hepatotoxicity (moderate) lookup, compound = CCN1CCCC1CNC(=O)c1cc(S(N)(=O)=O)ccc1OC (stereo not given) [SULPIRIDE] , result: 4

// Hepatotoxicity (moderate) lookup, compound = CC(C)NCC(O)c1ccc(NS(C)(=O)=O)cc1 (stereo not given) , result: 0

// Hepatotoxicity (moderate) lookup, compound = NC1CCN(c2nc3c(cc2F)c(=O)c(C(=O)O)cn3-c2ccc(F)cc2F)C1 (stereo not given) , result: 6.1

// Hepatotoxicity (moderate) lookup, compound = CC1CCCC(C)N1CCCC(O)(c1ccccc1)c1ccccn1 (stereo not given) , result: 5.3

// Hepatotoxicity (moderate) lookup, compound = "NS(=O)(=O)OCCCCCCCOS(N)(=O)=O" , result: 25

// Hepatotoxicity (moderate) lookup, compound = "CN1CCc2cccc3c2[C@H]1Cc1ccc(O)c(O)c1-3" , result: 0

* * *

# assay: Proposed mechanism(s) of liver damage. [column 'MEC' in source]
# run parameters: human
quantity kind: Hepatotoxicity (mechanism)

A selection of reference data follows.
CN1C(=O)CN=C(c2ccccc2)c2cc(Cl)ccc21: Allergic
Clc1ccc(C(c2ccccc2Cl)C(Cl)Cl)cc1 (stereo not drawn): Dose-dependant
CO/N=C(\C(=O)N[C@@H]1C(=O)N2C(C(=O)OC(C)OC(C)=O)=C(COC(N)=O)CS[C@H]12)c1ccco1 (stereo partly drawn): Allergic
O=NN(CCCl)C(=O)NCCCl: Dose-dependant
O=C(CCCCC(=O)Nc1c(I)cc(I)c(C(=O)O)c1I)Nc1c(I)cc(I)c(C(=O)O)c1I [IODIPAMIDE]: Dose-dependant

// Hepatotoxicity (mechanism) lookup, compound = "CO/N=C(\C(=O)N[C@@H]1C(=O)N2C(C(=O)O)=C(CSc3nc(=O)c(=O)[nH]n3C)CS[C@H]12)c1csc(N)n1" , result: Dose-dependant

// Hepatotoxicity (mechanism) lookup, compound = CC(C)NCC(O)COc1cccc2ccccc12 (stereo not drawn) , result: Allergic

// Hepatotoxicity (mechanism) lookup, compound = "CCc1nc(N)nc(N)c1-c1ccc(Cl)cc1" , result: Dose-dependant

// Hepatotoxicity (mechanism) lookup, compound = "O[C@H]1[C@H]2[C@H](O)CCCN2C[C@H]1O" , result: Dose-dependant

// Hepatotoxicity (mechanism) lookup, compound = "Oc1ncnc2[nH]ncc12" , result: Allergic

// Hepatotoxicity (mechanism) lookup, compound = CCC1(CC)C(=O)NCC(C)C1=O (stereo not drawn) , result: Dose-dependant

* * *

Below is a list of entries, each paired with its recorded Hepatotoxicity (benign tumour) value.
# run parameters: human
Just the number, please.

O=c1[nH]c(=O)n([C@H]2C[C@H](O)[C@@H](CO)O2)cc1F [FLOXURIDINE]: 0
CC(/C=N/NC(=N)N)=N\NC(=N)N [MITOGUAZONE]: 0
COc1cc(N)c(Cl)cc1C(=O)NC1CCN(CCCOc2ccc(F)cc2)CC1OC (stereo not given) [CISAPRIDE]: 0
CN(Cc1cc(Br)cc(Br)c1N)C1CCCCC1 [BROMHEXINE]: 0

# context switch: different compound, same Hepatotoxicity (benign tumour)
// Hepatotoxicity (benign tumour) lookup, compound = COc1cccc(C2(O)CCCCC2CN(C)C)c1 (stereo not given) [TRAMADOL] , result: 0

* * *

# run parameters: human, serum
Assign labels as follows, please: True for Hepatotoxicity (moderate) below 2; False for Hepatotoxicity (moderate) equal to or exceeding 2.

CCn1cc(C(=O)O)c(=O)c2cc(F)c(N3CCNCC3)cc21: False
CO/N=C(\C(=O)N[C@@H]1C(=O)N2C(C(=O)[O-])=C(C[N+]34CCC(C(N)=O)(CC3)CC4)CS[C@H]12)c1nsc(N)n1: False

*Q* Is Hepatotoxicity (moderate) of "Cc1nnc(SCC2=C(C(=O)O)N3C(=O)[C@@H](NC(=O)Cn4cnnn4)[C@H]3SC2)s1" strictly below 2?
*A* False

*Q* Is Hepatotoxicity (moderate) of "COc1cccc2c1C(=O)c1c(O)c3c(c(O)c1C2=O)C[C@@](O)(C(=O)CO)C[C@@H]3O[C@H]1C[C@H](N)[C@H](O)[C@H](C)O1" strictly below 2?
*A* False

*Q* Is Hepatotoxicity (moderate) of "CNn1cc(C(=O)O)c(=O)c2cc(F)c(N3CCN(C)CC3)cc21" strictly below 2?
*A* True

* * *

# run parameters: human
Below is a list of entries, each paired with its recorded Hepatotoxicity (cytolytic) value.
Just the number, please.

A selection of reference data follows.
CC1CCc2cc(F)cc3c(=O)c(C(=O)O)cn1c23 (stereo not drawn) [FLUMEQUINE]: 0
CC(=O)[C@@]1(O)CC[C@H]2[C@@H]3CCC4=CC(=O)CC[C@]4(C)[C@H]3CC[C@@]21C [HYDROXYPROGESTERONE]: 0
O=C(Cn1ccnc1[N+](=O)[O-])NCc1ccccc1 [BENZNIDAZOLE]: 0

// Hepatotoxicity (cytolytic) lookup, compound = COC(=O)C[C@](O)(CCCC(C)(C)O)C(=O)O[C@@H]1C(OC)=C[C@]23CCCN2CCc2cc4c(cc2[C@H]13)OCO4 [OMACETAXINE MEPESUCCINATE] , result: 0

// Hepatotoxicity (cytolytic) lookup, compound = O=C1C(CC[S+]([O-])c2ccccc2)C(=O)N(c2ccccc2)N1c1ccccc1 (stereo not drawn) [SULFINPYRAZONE] , result: 0

// Hepatotoxicity (cytolytic) lookup, compound = COc1cc(C(=S)N2CCOCC2)cc(OC)c1OC [TRITIOZINE] , result: 0

// Hepatotoxicity (cytolytic) lookup, compound = FCOC(C(F)(F)F)C(F)(F)F [SEVOFLURANE] , result: 6

* * *

# assay: Highest frequency of moderate liver toxicity observed during clinical trials, expressed as a percentage. [column '% BIOL' in source]
# run parameters: human
Below is a list of entries, each paired with its recorded Hepatotoxicity (moderate) value.

CCC1(c2ccccc2)C(=O)NC(=O)NC1=O: 0%
CC=CC1=C(C(=O)O)N2C(=O)[C@@H](NC(=O)[C@H](N)c3ccc(O)cc3)[C@H]2SC1: 25%
CCCCOCC(CN1C(=O)NC(=O)C(CC)(c2ccccc2)C1=O)OC(N)=O (stereo not given) [FEBARBAMATE]: 0%
Cc1ncc([N+](=O)[O-])n1CC(O)CCl (stereo not given): 0%

// Hepatotoxicity (moderate) lookup, molecule = "N[C@H](C(=O)O)[C@@H]1CC(Cl)=NO1" , result: 62%

* * *

# assay: Highest frequency of acute liver toxicity observed during clinical trials, expressed as a percentage. [column '% AIGUE' in source]
# run parameters: human
quantity kind: Hepatotoxicity (acute) (%)
Give a bare numeral; the unit % is implied.

A selection of reference data follows.
CO/N=C(\C(=O)N[C@@H]1C(=O)N2C(C(=O)[O-])=C(C[n+]3cccc4c3CCC4)CS[C@H]12)c1csc(N)n1: 0
O=C(O)CCCc1ccc(N(CCCl)CCCl)cc1: 4.8
Cc1nc(NS(=O)(=O)c2ccc(N)cc2)oc1C: 0
CCN1CCC[C@H]1CNC(=O)c1c(OC)ccc(Br)c1OC [REMOXIPRIDE]: 0

# context switch: different compound, same Hepatotoxicity (acute)
// Hepatotoxicity (acute) lookup, compound = "O=C(O)COC(=O)Cc1ccccc1Nc1c(Cl)cccc1Cl" , result: 0
